Entries annotated with measured pIC50
Biological target: GLUT3 (Homo sapiens, UniProt P11169)
Sequence (P11169 1-496): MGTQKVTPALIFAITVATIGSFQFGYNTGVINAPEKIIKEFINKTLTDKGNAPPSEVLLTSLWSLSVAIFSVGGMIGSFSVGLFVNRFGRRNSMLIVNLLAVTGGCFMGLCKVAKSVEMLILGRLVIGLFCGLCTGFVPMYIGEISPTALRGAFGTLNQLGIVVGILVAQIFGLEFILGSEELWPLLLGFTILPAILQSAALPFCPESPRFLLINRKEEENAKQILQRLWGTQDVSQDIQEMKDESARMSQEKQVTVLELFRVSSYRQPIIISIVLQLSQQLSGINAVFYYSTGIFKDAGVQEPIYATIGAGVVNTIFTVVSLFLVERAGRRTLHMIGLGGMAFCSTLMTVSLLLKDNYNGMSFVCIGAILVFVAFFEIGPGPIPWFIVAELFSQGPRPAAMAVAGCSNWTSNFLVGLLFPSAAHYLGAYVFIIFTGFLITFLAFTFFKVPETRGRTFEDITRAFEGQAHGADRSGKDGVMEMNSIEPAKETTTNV
Assay: GLUT3 transporter activity assay (2-DG uptake) in DLD-1-GLUT1-/- cells
Conditions: DLD-1-GLUT1-/- cell line; read-out: GLUT3 inhibitory activity (IC50)
pIC50: −log10 of the molar value.

Use these answered entries as a reference point.
Cc1ccc(CCNC(=O)c2cccc(N3C(=O)NC4CC3(C)Oc3c(OCc5cncc(C)c5)cccc34)c2)cc1 (stereo not shown) ... ≥ 6.52
CC12CC(NC(=O)N1c1cccc(C(=O)N3CCc4ccccc43)c1)c1cccc(OCc3ccccc3)c1O2 (stereo not shown) ... 5.40 to 6.00

Now consider a different compound.
The value of pIC50 measured for the compound Cc1ccc(CCN(C)C(=O)c2cccc(N3C(=O)NC4CC3(C)Oc3c(OCc5ccccc5)cccc34)c2)cc1 (stereo not shown) turned out to be 6.00 to 6.52
